biological target: Nonstructural protein 3 (Zika virus); assay: Functional biochemical assay to identify treatments for viral infectious disease that targets Zika NS2B-NS3 protease. Utilizing a direct enzyme activity measurement method, reading the fluorescence intensity is used to characterize the relative potency of inhibitors as IC50.; set-up: species or system PRVABC59
Sequence (A0A024AXB9 whole entry): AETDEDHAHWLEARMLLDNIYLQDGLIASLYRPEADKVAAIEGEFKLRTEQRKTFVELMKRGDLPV
pIC50: −log10 of the molar value.
Listing of recorded pIC50 by entry.

Data request: Complete the entry with pIC50 for Cc1c(C(=O)Nc2cc(-c3cccnc3)ccn2)cc(CC(C)(C)C)n1C
Data returned: < 4.60

Data request: Complete the entry with pIC50 for O=C(Nc1cc(Cl)cc(C(=O)Nc2ccc3c(c2)C[C@H](F)C3)c1)OCc1ccccc1
Data returned: < 4.00

Data request: Complete the entry with pIC50 for Clc1ccc2nc(C3CCOCC3)n(Cc3ccc4c(c3)CNC4)c2c1
Data returned: < 4.00

----------
biological target: Nonstructural protein 3 (Zika virus); assay: Functional biochemical assay to identify treatments for viral infectious disease that targets Zika NS2B-NS3 protease. Utilizing a direct enzyme activity measurement method, reading the fluorescence intensity is used to characterize the relative potency of inhibitors as IC50.; design: species or system PRVABC59
pIC50: −log10 of the molar value.
Hi, to clarify the labels: T covers pIC50 from 5 upward, F covers anything below 5.

Worked set:
> print(dat)
                                   molecule  assigned.class
1  CC(C)OC(=O)Nc1cc(Cl)cc(C(=O)Nc2cccc(CN)c2)c1               T
2  O=C(Nc1ccc2c(c1)CNC2)c1cc(Cl)ccc1-n1ccnc1               T
3       NCc1ccccc1C(=O)Nc1ccc2c(c1)C(=O)OC2               F

Data request: Form field: pIC50 at least 5? Entry: CC1(C)C(=O)N[C@H]2CCCN(C(=O)Nc3ccc4c(c3)CNC4)[C@H]21
Data returned: F

Data request: Form field: pIC50 at least 5? Entry: Cc1c(C(=O)Nc2cc(C3CCOCC3)ccc2F)cc(C2CC2)n1C
Data returned: F

Data request: Form field: pIC50 at least 5? Entry: CC(C)CNC(=O)[C@H](Nc1cccc(-c2nnn[nH]2)c1)c1cc(Cl)cc(C2CC2)c1
Data returned: F

----------
target: UniProtKB A0A024AXB9; experiment: Functional biochemical assay to identify treatments for viral infectious disease that targets Zika NS2B-NS3 protease. Utilizing a direct enzyme activity measurement method, reading the fluorescence intensity is used to characterize the relative potency of inhibitors as IC50.; set-up: species or system PRVABC59
Listing of recorded log10 of IC50 by entry.
Recall that a logarithmic scale is used here: each number is log10 of IC50 in µM.

Examples from the recorded data:
> print(dat)
                                   molecule  quantitative.readout
1  NCCc1cccc(-c2cccc([C@@H](NC(=O)OCc3ccccc3)C(=O)Nc3cccc(CN)c3)c2)c1                  1.02
2  C[C@H](C1CC1)n1ncc2c(C(=O)Nc3ccc4c(c3)CNC4)cc(C3CC3)nc21                  0.91
3  O=C(Nc1ccc(C2CNC2)cc1)c1cc(Cl)cc2[nH]ncc12                  0.09
4  N[C@@H]1CC[C@H](NC(=O)c2cc(Cl)cc(NC(=O)OCc3ccccc3)c2)C1                  1.66
5  O=C(Nc1cc(Cl)cc(C(=O)NCc2ccc(-c3nnn[nH]3)cc2)c1)OCc1ccccc1                  1.83

Data request: Complete the entry with log10 of IC50 for CCc1[nH]c2ccccc2c1CN1CCC(c2cscn2)CC1
Data returned: 1.32
